molecular target: Peptidyl-prolyl cis-trans isomerase NIMA-interacting 1 (Homo sapiens, UniProt Q13526)
Sequence (Q13526 whole entry): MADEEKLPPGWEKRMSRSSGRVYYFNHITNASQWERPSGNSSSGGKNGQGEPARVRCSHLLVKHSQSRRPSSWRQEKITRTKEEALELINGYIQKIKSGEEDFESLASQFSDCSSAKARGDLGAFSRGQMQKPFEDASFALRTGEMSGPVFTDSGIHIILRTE
pIC50: −log10 of the molar value.
Threshold rule: pIC50 greater than or equal to 5 is True; below that, False.

Decide: is the reported value of pIC50 for COc1ccccc1-c1ccc(C(=O)O)o1 equal to or greater than 5?
False

Decide: is the reported value of pIC50 for O=C(O)c1[nH]c(-c2cccc(Cl)c2)nc1C(=O)N1CCOCC1 equal to or greater than 5?
False

Decide: is the reported value of pIC50 for O=C(O)c1[nH]c(-c2cccc(Cl)c2)nc1C(=O)N(Cc1ccccc1)Cc1ccccc1 equal to or greater than 5?
True

Next:
Decide: is the reported value of pIC50 for COc1cccc(-c2nc(C)c(C(=O)O)[nH]2)c1 equal to or greater than 5?
False

Decide: is the reported value of pIC50 for Cc1nc(-c2cccc(C#N)c2)[nH]c1C(=O)O equal to or greater than 5?
False

Decide: is the reported value of pIC50 for Cc1cccc(-c2nc(C(=O)O)c(C)[nH]2)c1 equal to or greater than 5?
False

Source listed as ChEMBL document CHEMBL1268960.
